AC50 values for the compounds below.
target: PKR WT (Homo sapiens); assay: PKR WT enzymatic AC50 assay; format: biochemical; settings: wild type PKR
Sequence (P30613 whole entry): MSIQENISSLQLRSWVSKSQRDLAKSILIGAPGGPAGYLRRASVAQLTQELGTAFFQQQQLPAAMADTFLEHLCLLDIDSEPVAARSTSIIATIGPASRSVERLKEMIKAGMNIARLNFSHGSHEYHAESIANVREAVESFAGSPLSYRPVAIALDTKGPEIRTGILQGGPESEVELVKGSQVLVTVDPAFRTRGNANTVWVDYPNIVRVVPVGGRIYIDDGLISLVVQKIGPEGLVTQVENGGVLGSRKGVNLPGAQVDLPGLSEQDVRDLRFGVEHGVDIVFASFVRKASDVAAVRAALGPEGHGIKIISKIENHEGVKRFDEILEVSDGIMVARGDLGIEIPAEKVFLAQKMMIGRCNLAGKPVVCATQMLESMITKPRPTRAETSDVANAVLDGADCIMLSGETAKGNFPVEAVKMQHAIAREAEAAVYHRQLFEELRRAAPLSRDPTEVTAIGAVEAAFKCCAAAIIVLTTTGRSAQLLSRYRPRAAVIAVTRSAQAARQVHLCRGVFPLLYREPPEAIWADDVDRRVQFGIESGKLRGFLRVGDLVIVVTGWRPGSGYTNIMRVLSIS

Examples with answers:
COMPOUND: O=C(c1ccc(NS(=O)(=O)c2cccc3cccnc23)cc1)N1CCC(O)(CC2CCC2)CC1 [Compound 124]
ASSAY TARGET: PKR WT (Homo sapiens)
AC50: < 100 nM

COMPOUND: O=C(c1ccc(NS(=O)(=O)c2cccc3cccnc23)cc1)N1CCC(O)(c2ccc(F)c(Br)n2)CC1 [Compound 133]
ASSAY TARGET: PKR WT (Homo sapiens)
AC50: < 100 nM

COMPOUND: O=C(c1ccc(NS(=O)(=O)c2cccc3scnc23)cc1)N1CCC(O)(c2ccccc2Cl)CC1 [Compound 155]
ASSAY TARGET: PKR WT (Homo sapiens)
AC50: < 100 nM

Ask | Dear colleague, please send me the reported AC50 for O=C(c1ccc(NS(=O)(=O)c2ccc(F)c3scnc23)cc1)N1CCC(O)(c2ccccc2Cl)CC1 [Compound 368] when you can.
Reply | 101 to 1000 nM

Ask | Dear colleague, please send me the reported AC50 for CC(CC1(O)CCN(C(=O)c2ccc(NS(=O)(=O)c3cccc4sc(N)nc34)cc2)CC1)C(F)(F)F (stereo not shown) [Compound 429] when you can.
Reply | < 100 nM

Ask | Dear colleague, please send me the reported AC50 for O=C(c1ccc(NS(=O)(=O)c2cccc3cccnc23)cn1)N1CCC(O)(c2ccccc2)CC1 [Compound 298] when you can.
Reply | 1010 to 10000 nM

Ask | Dear colleague, please send me the reported AC50 for O=C(c1ccc(NS(=O)(=O)c2cccc3cccnc23)cc1)N1CCC(O)(Cc2ccccn2)CC1 [Compound 189] when you can.
Reply | < 100 nM

----------
target: UniProtKB P30613; test: PKR WT enzymatic AC50 assay; format: biochemical; conditions: wild type PKR
AC50 values for the compounds below.

Examples with answers:
COMPOUND: O=C(c1ccc(NS(=O)(=O)c2cccc3cc(F)cnc23)cc1)N1CCC(O)(Cc2ccccc2)CC1 [Compound 128]
ASSAY TARGET: UniProtKB P30613
RESULT: < 100 nM
//
COMPOUND: O=C(c1ccc(NS(=O)(=O)c2cccc3scnc23)cc1)N1CCC(O)(CCC(F)F)CC1 [Compound 235]
ASSAY TARGET: UniProtKB P30613
RESULT: 101 to 1000 nM
//
COMPOUND: CC(C)(F)CC1(O)CCN(C(=O)c2ccc(NS(=O)(=O)c3cccc4scnc34)cc2)CC1 [Compound 403]
ASSAY TARGET: UniProtKB P30613
RESULT: 101 to 1000 nM

Ask | Please indicate recorded AC50 of O=C(c1ccc(NS(=O)(=O)c2ccc(F)c3cccnc23)cc1)N1CCC(O)(c2cccc(F)c2F)CC1 [Compound 227] measured with UniProtKB P30613.
Reply | 101 to 1000 nM

Ask | Please indicate recorded AC50 of CC(C)(O)CCC1(O)CCN(C(=O)c2ccc(NS(=O)(=O)c3cccc4cccnc34)cc2)CC1 [Compound 292] measured with UniProtKB P30613.
Reply | 101 to 1000 nM

Ask | Please indicate recorded AC50 of O=C(c1ccc(NS(=O)(=O)c2cccc3nc(F)ccc23)cc1)N1CCC(O)(c2ccccc2Cl)CC1 [Compound 259] measured with UniProtKB P30613.
Reply | 101 to 1000 nM
